Ref: patent US7704993B2

- System under test: human 5HT2C receptor (Homo sapiens, UniProt P28335)
- Sequence (P28335 33-458): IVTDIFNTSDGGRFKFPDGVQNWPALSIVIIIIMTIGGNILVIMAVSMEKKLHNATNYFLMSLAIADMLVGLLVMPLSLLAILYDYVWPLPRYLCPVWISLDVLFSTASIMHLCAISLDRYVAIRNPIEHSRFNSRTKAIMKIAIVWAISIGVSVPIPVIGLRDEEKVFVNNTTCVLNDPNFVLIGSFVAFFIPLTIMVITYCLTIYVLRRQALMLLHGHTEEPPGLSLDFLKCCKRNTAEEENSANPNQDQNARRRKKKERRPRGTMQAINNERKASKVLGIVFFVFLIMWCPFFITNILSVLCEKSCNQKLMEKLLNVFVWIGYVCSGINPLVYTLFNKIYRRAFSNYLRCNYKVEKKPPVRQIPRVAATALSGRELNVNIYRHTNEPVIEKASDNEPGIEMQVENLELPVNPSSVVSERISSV
- Protocol description: Intracellular IP3 Accumulation Assay
- Measurement context: HEK293 cells transfected with human 5HT2C receptor cDNA; read-out: 5HT2C (IC50) IP Accumulation Assay
Recorded metric: pIC50
Note on units: pIC50 is unitless, being -log10 of a concentration expressed in mol/L.

INSERT INTO assay_data (compound, recorded_metric, data_value) VALUES
  ('CC1CNCCc2ccc(Cl)c(F)c21 (racemic)', 'pIC50', 7.61);

API: the following record is the query input.
Looking for the measured pIC50 of CC1CNCCc2c(Cl)cc(Cl)cc21 (racemic) , can you help?
7.93
